- system-under-test: human wildtype CFTR (Homo sapiens, UniProt P13569)
- Construct: expressed in transfected cells; host or cells: Fischer rat thyroid (FRT) cells
- Sequence (P13569 whole entry): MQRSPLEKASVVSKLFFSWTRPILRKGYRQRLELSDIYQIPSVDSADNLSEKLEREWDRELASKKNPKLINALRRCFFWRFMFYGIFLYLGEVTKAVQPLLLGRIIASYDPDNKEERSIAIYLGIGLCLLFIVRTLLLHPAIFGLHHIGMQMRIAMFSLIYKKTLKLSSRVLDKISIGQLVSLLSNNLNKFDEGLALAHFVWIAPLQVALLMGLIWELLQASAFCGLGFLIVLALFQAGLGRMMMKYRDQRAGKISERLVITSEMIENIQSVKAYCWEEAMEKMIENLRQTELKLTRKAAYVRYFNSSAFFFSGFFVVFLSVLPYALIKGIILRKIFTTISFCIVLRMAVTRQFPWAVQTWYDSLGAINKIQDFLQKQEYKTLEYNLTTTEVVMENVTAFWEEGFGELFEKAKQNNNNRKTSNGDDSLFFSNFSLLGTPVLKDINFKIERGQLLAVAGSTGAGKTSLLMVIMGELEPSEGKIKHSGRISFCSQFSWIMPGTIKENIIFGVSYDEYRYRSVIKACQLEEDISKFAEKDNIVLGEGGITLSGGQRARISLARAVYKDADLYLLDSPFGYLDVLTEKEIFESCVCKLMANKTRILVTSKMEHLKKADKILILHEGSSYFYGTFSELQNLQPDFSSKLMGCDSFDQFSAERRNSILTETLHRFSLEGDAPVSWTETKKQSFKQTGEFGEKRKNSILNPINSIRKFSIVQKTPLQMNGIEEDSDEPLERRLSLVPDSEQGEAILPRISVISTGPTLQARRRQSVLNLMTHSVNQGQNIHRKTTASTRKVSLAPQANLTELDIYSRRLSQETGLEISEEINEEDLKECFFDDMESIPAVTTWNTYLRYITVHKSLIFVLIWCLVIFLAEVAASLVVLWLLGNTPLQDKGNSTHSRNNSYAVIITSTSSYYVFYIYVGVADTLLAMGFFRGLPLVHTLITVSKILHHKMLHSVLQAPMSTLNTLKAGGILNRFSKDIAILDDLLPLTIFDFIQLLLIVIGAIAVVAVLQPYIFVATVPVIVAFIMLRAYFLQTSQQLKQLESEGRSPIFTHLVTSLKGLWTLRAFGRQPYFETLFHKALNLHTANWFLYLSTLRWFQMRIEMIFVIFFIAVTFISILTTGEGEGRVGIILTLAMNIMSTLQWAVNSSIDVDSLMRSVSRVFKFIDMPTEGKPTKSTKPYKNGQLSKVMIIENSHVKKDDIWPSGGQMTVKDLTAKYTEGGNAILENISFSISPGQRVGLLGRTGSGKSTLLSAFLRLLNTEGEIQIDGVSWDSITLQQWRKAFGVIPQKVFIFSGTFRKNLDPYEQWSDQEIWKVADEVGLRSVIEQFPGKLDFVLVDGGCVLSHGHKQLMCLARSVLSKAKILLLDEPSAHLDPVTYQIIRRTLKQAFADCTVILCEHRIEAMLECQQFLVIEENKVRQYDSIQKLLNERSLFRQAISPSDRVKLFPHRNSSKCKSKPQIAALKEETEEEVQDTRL
- assay-remarks: Fluorescence platereader assay of CFTR-mediated iodide influx (YFP quenching) in FRT cells
- Format: cell-based
- assay-conditions: FRT; Table 2; screening, 25 μM; read-out: % Inhibition at 25 μM
Exercise: for every item that follows, state its recorded inhibition at 25 µM.
State the answer as a number, implicitly in %.

input: Which inhibition at 25 µM reading was recorded for the compound Cc1ccccc1-c1c2c(=O)n(C)c(=O)n(C)c2c2n1-c1ccccc1NC2c1cccc(O)c1O (stereo not shown) ?
output: 30

input: Continue with Cc1cccc(-c2c3c(=O)n(C)c(=O)n(C)c3c3n2-c2ccccc2NC3c2ccccc2F)c1 (stereo not shown) [PPQ-215]
output: 80

input: Continue with COc1cccc(C2Nc3ccccc3-n3c(-c4ccc(Cl)cc4)c4c(=O)n(C)c(=O)n(C)c4c32)c1 (stereo not shown)
output: 41

input: Continue with COc1ccc(-c2c3c(=O)n(C)c(=O)n(C)c3c3n2-c2ccccc2NC3c2cccs2)cc1 (stereo not shown)
output: 34

This collection of values is drawn from patent US8609661B2.
